pIC50: −log10 of the molar value.
The following compounds have recorded pIC50 on c-Rel protein (Homo sapiens (Human)).
Sequence (Q04864 whole entry): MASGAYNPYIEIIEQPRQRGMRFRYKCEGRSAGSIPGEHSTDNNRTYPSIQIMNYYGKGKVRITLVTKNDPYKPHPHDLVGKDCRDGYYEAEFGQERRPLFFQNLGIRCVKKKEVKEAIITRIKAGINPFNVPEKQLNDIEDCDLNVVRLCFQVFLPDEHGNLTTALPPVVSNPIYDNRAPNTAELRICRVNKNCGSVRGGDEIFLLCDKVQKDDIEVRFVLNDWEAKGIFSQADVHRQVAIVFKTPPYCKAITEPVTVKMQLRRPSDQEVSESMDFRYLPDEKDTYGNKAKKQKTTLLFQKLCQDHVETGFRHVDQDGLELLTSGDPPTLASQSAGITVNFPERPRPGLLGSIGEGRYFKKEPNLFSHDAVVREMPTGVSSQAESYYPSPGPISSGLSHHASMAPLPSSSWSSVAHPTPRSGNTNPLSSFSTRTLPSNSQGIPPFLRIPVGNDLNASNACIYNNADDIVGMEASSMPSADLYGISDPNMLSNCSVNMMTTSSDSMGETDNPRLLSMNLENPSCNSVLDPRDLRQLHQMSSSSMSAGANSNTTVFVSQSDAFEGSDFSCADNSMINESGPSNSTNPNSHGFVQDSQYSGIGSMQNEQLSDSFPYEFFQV

Compound | Target under test | pIC50
CC(C)(C)CCOc1ccc2cc3c(=O)[nH]c(=O)nc-3oc2c1Cl [Compound 41] | c-Rel protein (Homo sapiens (Human)) | > 6.30
CCOc1ccc2cc3c(=O)[nH]c(=O)nc-3sc2c1 [Compound 49] | c-Rel protein (Homo sapiens (Human)) | > 6.00
COc1ccc2cc3c(=O)[nH]c(=O)nc-3oc2c1 [Compound 6] | c-Rel protein (Homo sapiens (Human)) | > 6.00
O=c1nc2oc3ccccc3cc-2c(=O)[nH]1 [Compound 9] | c-Rel protein (Homo sapiens (Human)) | > 5.30

Below are 8 compounds. Give each one its pIC50.
1. COCCOCCCOc1ccc2cc3c(=O)[nH]c(=O)nc-3oc2c1 [Compound 71]
2. CC(C)COc1ccc2cc3c(=O)[nH]c(=O)nc-3oc2c1F [Compound 48]
3. COCCCCOc1ccc2cc3c(=O)[nH]c(=O)nc-3oc2c1 [Compound 67]
4. CCCCOc1ccc2cc3c(=O)[nH]c(=O)nc-3oc2c1Cl [Compound 43]
5. O=C(O)COc1ccc2cc3c(=O)[nH]c(=O)nc-3oc2c1Cl [Compound 56]
6. CCOc1ccc2cc3c(=O)[nH]c(=O)nc-3oc2c1 [Compound 13]
7. O=c1[nH]c(=S)nc2oc3cc(O)ccc3cc1-2 [Compound 16]
8. COc1ccc2cc3c(=O)[nH]c(=S)nc-3oc2c1 [Compound 8]

Completion:
["> 6.00", "> 6.30", "> 6.00", "> 6.30", "> 5.30", "> 6.00", "> 6.30", "> 6.30"]

Below are 4 compounds. Give each one its pIC50.
1. COc1ccc2oc3nc(=S)[nH]c(=O)c-3cc2c1 [Compound 15]
2. COc1cc(Cl)cc2cc3c(=O)[nH]c(=S)nc-3oc12 [Compound 7]
3. COCCOCCOc1ccc2cc3c(=O)[nH]c(=O)nc-3oc2c1F [Compound 63]
4. CCCCCCOc1cc2oc3nc(=O)[nH]c(=O)c-3cc2cc1F [Compound 31]

Completion:
1. > 6.30
2. > 5.70
3. > 6.00
4. > 6.30

Below are 2 compounds. Give each one its pIC50.
1. CC(=O)OCCCCOc1ccc2cc3c(=O)[nH]c(=O)nc-3oc2c1 [Compound 51]
2. O=C(O)CCCCCOc1ccc2cc3c(=O)[nH]c(=O)nc-3oc2c1Cl [Compound 53]

Completion:
1: > 6.00; 2: > 5.30

Below are 7 compounds. Give each one its pIC50.
1. COCCOCCCOc1ccc2cc3c(=O)[nH]c(=O)nc-3oc2c1F [Compound 73]
2. CCOc1ccc2cc3c(=O)[nH]c(=O)nc-3oc2c1Cl [Compound 22]
3. CCCCCCCOc1ccc2cc3c(=O)[nH]c(=O)nc-3oc2c1F [Compound 52]
4. CC(C)COc1ccc2cc3c(=O)[nH]c(=O)nc-3oc2c1 [Compound 23]
5. CCCOc1cc2oc3nc(=O)[nH]c(=O)c-3cc2cc1Cl [Compound 20]
6. CC(C)COc1cc2oc3nc(=O)[nH]c(=O)c-3cc2cc1Cl [Compound 38]
7. Cc1ccc2cc3c(=O)[nH]c(=S)nc-3oc2c1 [Compound 17]

Completion:
["> 6.00", "> 6.00", "> 6.30", "> 6.00", "> 6.00", "> 6.30", "> 6.30"]

----------
Exercise: state measured IC50 for each of the compounds provided.
Test system: NF-κB
Test details: NF-κB GFP Assay (NFκB/Jurkat/GFP transcriptional reporter cell line)
Assay type: cell-based
Measurement parameters: Homo sapiens; NF-κB/Jurkat/GFP reporter cells, TNF-α 5 ng/ml, 24 hours; read-out: NF-KB GFP IC50

Entry smiles | IC50
CCCCCCCOc1ccc2cc3c(=O)[nH]c(=O)nc-3oc2c1F | < 5 µM
CC(C)COc1cc2oc3nc(=O)[nH]c(=O)c-3cc2cc1Cl | < 20 µM
COCCCCOc1cc2oc3nc(=O)[nH]c(=O)c-3cc2cc1Cl | < 5 µM
CCCCCCOc1cc2oc3nc(=O)[nH]c(=O)c-3cc2cc1Cl | < 20 µM
CC(=O)OCCCCOc1ccc2cc3c(=O)[nH]c(=O)nc-3oc2c1Cl | < 20 µM

Below are 8 compounds. Give each one its IC50.
1. COCCOCCCOc1cc2oc3nc(=O)[nH]c(=O)c-3cc2cc1Cl
2. CCCCCOc1ccc2cc3c(=O)[nH]c(=O)nc-3oc2c1Cl
3. COCCOCCCOc1ccc2cc3c(=O)[nH]c(=O)nc-3oc2c1Cl
4. Cc1ccc2cc3c(=O)[nH]c(=O)nc-3oc2c1
5. CCCCOc1ccc2cc3c(=O)[nH]c(=O)nc-3oc2c1F
6. COc1ccc2cc3c(=O)[nH]c(=S)nc-3oc2c1
7. COCCOCCOc1ccc2cc3c(=O)[nH]c(=O)nc-3oc2c1Cl
8. COc1ccc2oc3nc(=S)[nH]c(=O)c-3cc2c1

Completion:
< 5 µM
< 3 µM
< 5 µM
7 µM
< 5 µM
< 30 µM
< 5 µM
< 30 µM

----------
Tested on: NF-κB
Test details: NF-κB GFP Assay (NFκB/Jurkat/GFP transcriptional reporter cell line)
Type: cell-based
Measurement parameters: Homo sapiens; NF-κB/Jurkat/GFP reporter cells, TNF-α 5 ng/ml, 24 hours; read-out: NF-KB GFP IC50
pIC50: −log10 of the molar value.
Exercise: state measured pIC50 for each of the compounds provided.

Below are 5 compounds. Give each one its pIC50.
1. O=C(O)CCCCCOc1ccc2cc3c(=O)[nH]c(=O)nc-3oc2c1Cl
2. Cc1ccc2cc3c(=O)[nH]c(=S)nc-3oc2c1
3. COCCOCCCOc1ccc2cc3c(=O)[nH]c(=O)nc-3oc2c1
4. CCCCn1c(=O)nc2oc3cc(OCC)c(Cl)cc3cc-2c1=O
5. COc1cc(Cl)cc2cc3c(=O)[nH]c(=S)nc-3oc12

Completion:
> 4.70
> 4.52
> 5.30
> 4.52
> 4.52

----------
Test system: NF-κB
Test details: NF-κB GFP Assay (NFκB/Jurkat/GFP transcriptional reporter cell line)
Format: cell-based
Measurement parameters: Homo sapiens; NF-κB/Jurkat/GFP reporter cells, TNF-α 5 ng/ml, 24 hours; read-out: NF-KB GFP IC50
Recorded metric: IC50

Reference set (5 entries):
Molecule | IC50
CCCCCCCOc1cc2oc3nc(=O)[nH]c(=O)c-3cc2cc1F [Compound 32] | < 5 µM
CCCOc1cc2oc3nc(=O)[nH]c(=O)c-3cc2cc1Cl [Compound 20] | < 5 µM
COc1cc(Br)cc2cc3c(=O)[nH]c(=O)nc-3oc12 [Compound 4] | < 30 µM
CCOc1ccc2cc3c(=O)[nH]c(=O)nc-3oc2c1Cl [Compound 22] | < 10 µM
COc1cc(Cl)cc2cc3c(=O)[nH]c(=O)nc-3oc12 [Compound 3] | < 30 µM

Below are 7 molecules. Give each one its IC50.
1. CCCOc1ccc2cc3c(=O)[nH]c(=O)nc-3oc2c1 [Compound 19]
2. CC(C)COc1ccc2cc3c(=O)[nH]c(=O)nc-3oc2c1F [Compound 48]
3. CCCCCCOc1ccc2cc3c(=O)[nH]c(=O)nc-3oc2c1F [Compound 46]
4. CCOc1ccc2cc3c(=O)[nH]c(=O)nc-3oc2c1 [Compound 13]
5. CCOc1cc2oc3nc(=O)[nH]c(=O)c-3cc2cc1F [Compound 28]
6. COc1cc(OC)c2cc3c(=O)[nH]c(=O)nc-3oc2c1 [Compound 14]
7. CC(C)CCOc1cc2oc3nc(=O)[nH]c(=O)c-3cc2cc1F [Compound 33]

Completion:
["< 5 µM", "< 5 µM", "< 5 µM", "9 µM", "< 5 µM", "8.2 µM", "< 3 µM"]

Below are 7 molecules. Give each one its IC50.
1. COc1ccc2cc3c(=O)[nH]c(=O)nc-3oc2c1 [Compound 6]
2. CC(C)(C)CCOc1ccc2cc3c(=O)[nH]c(=O)nc-3oc2c1Cl [Compound 41]
3. CC(C)(C)COc1cc2oc3nc(=O)[nH]c(=O)c-3cc2cc1F [Compound 36]
4. CCOc1cccc2cc3c(=O)[nH]c(=O)nc-3oc12 [Compound 2]
5. CC(C)CCCOc1cc2oc3nc(=O)[nH]c(=O)c-3cc2cc1F [Compound 35]
6. COCCCCOc1cc2oc3nc(=O)[nH]c(=O)c-3cc2cc1F [Compound 70]
7. O=C(O)COc1ccc2cc3c(=O)[nH]c(=O)nc-3oc2c1Cl [Compound 56]

Completion:
1: < 10 µM; 2: < 10 µM; 3: < 10 µM; 4: < 30 µM; 5: < 10 µM; 6: < 5 µM; 7: < 20 µM

Prompt: State its IC50 on NF-κB: COc1ccc2oc3nc(=O)[nH]c(=O)c-3cc2c1 [Compound 10]
Completion: < 30 µM
